protocol.notes: surface tension of aqueous surfactant solutions and critical micelle concentration (K-12 Processor Tensiometer)
Type: physicochemical
condition: deionized water; Table 3
result.type: Surf. Tens. at the CMC (dynes/cm)
Return type: number; implicit unit dynes/cm.

1. CN(C)CCCN(CCCN(C)C)C(=O)C(F)(C(F)(F)F)C(F)(F)C(F)(F)C(F)(F)C(F)(F)C(F)(F)C(F)(F)C(F)(F)F (centres unmarked) = 22.0

Attention now shifts to the item below.
Give Surf. Tens. at the CMC for the following compound: C[N+](C)([O-])CCCNC(=O)C(F)(C(F)(F)F)C(F)(F)C(F)(F)C(F)(F)C(F)(F)C(F)(F)C(F)(F)C(F)(F)C(F)(F)C(F)(F)C(F)(F)F (centres unmarked)
17.1
